- procedure.text: HPLC lipophilicity (log kW, standardized to log PEXP)
- Format: physicochemical
- conditions: LiChrospher CN HPLC column (125 × 4.0 mm, 5 µm), HPLC.CN/ACN (CN column, acetonitrile modifier)
recorded.metric: chromatographic logP
One number for each entry.

Worked examples, 3 compounds total:
>  <line.notation>
Cc1ccc([C@@H]2O[C@H](CO)[C@@H](O)[C@H](O)[C@H]2O)cc1Cc1ccc(-c2ccc(F)cc2)s1

>  <chromatographic logP>
3.73

$$$$
>  <line.notation>
CCOc1ccc(Cc2cc([C@@H]3O[C@H](SC)[C@@H](O)[C@H](O)[C@H]3O)ccc2Cl)cc1

>  <chromatographic logP>
3.59

$$$$
>  <line.notation>
OC[C@H]1O[C@@H](c2ccc(Cl)c(Cc3ccc(O[C@H]4CCOC4)cc3)c2)[C@H](O)[C@@H](O)[C@@H]1O

>  <chromatographic logP>
2.3

$$$$

# next compound below
# input Quickly give me recorded chromatographic logP for CCOc1ccc(Cc2cc([C@]34OC[C@](CO)(O3)[C@@H](O)[C@H](O)[C@H]4O)ccc2Cl)cc1
# output 2.49

====

- procedure.text: HPLC lipophilicity (log kW, standardized to log PEXP)
- Format: physicochemical
- conditions: LiChrospher RP18 HPLC column (125 × 4.0 mm, 5 µm), HPLC.RP18/MeOH
recorded.metric: chromatographic logP

Worked examples, 3 compounds total:
>  <line.notation>
Cc1ccc([C@@H]2O[C@H](CO)[C@@H](O)[C@H](O)[C@H]2O)cc1Cc1ccc(-c2ccc(F)cc2)s1

>  <chromatographic logP>
4.55

$$$$
>  <line.notation>
OC[C@H]1O[C@@H](c2ccc(Cl)c(Cc3ccc(O[C@H]4CCOC4)cc3)c2)[C@H](O)[C@@H](O)[C@@H]1O

>  <chromatographic logP>
2.85

$$$$
>  <line.notation>
CCOc1ccc(Cc2cc([C@@H]3O[C@H](CO)[C@@H](O)[C@H](O)[C@H]3O)ccc2Cl)cc1

>  <chromatographic logP>
3.27

$$$$

# next compound below
# input Quickly give me recorded chromatographic logP for CCOc1ccc(Cc2cc([C@]34OC[C@](CO)(O3)[C@@H](O)[C@H](O)[C@H]4O)ccc2Cl)cc1
# output 3.59
